Hey, just so you know, these numbers are from patent US20140154255A1.

Give pKd for every item shown.
Target: T1, human VEGF-A residues 27-191 of Accession #AAV38412 (human, UniProt P15692 27-191)
T1 construct: range 27-191
T1 sequence (P15692 other isoform, or with tags, fused parts or gaps limits assumed): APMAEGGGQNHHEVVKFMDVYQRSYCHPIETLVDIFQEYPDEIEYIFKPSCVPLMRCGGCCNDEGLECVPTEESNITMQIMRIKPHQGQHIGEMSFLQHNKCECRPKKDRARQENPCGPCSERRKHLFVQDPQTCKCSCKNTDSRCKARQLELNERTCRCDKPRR
Experiment: BIAcore SPR
Give bare numbers, as −log10 of the molar value.

Entry under test: T28 G (anti-VEGF IgG) (antibody, V domains shown, copies: 2 + 2) VH: EVQLVESGGGLVQPGGSLRLSCAASGYGFTNYGMNWVRQAPGKGLEWVGWINTYTGEPTYAADFKRRFTFSLDTSKSTAYLQMNSLRAEDTAVYYCAKYPHYYGSSHWYFDVWGQGTLVTVSS VL: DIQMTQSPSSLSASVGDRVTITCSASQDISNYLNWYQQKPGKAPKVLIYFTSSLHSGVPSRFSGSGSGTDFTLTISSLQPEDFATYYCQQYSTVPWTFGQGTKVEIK . Its pKd was 9.43

Item: 95 (antibody, human IgG1, V domains shown) VH: EVQLVESGGGLVQPGGSLRLSCAASGYTFTNYGMNWVRQAPGKGLEWVGWINTYTGEPTYAADFKRRFTFSLDTSKSTAYLQMNSLRAEDTAVYYCAKYPDYYGSSHWYFDVWGQGTLVTVSS VL: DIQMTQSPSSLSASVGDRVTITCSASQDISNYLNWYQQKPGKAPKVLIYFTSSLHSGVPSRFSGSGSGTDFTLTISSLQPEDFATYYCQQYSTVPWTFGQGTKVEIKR | pKd: 8.89

N31 H (anti-VEGF IgG) (antibody, V domains shown, copies: 2 + 2) VH: EVQLVESGGGLVQPGGSLRLSCAASGYTFTHYGMNWVRQAPGKGLEWVGWINTYTGEPTYAADFKRRFTFSLDTSKSTAYLQMNSLRAEDTAVYYCAKYPHYYGSSHWYFDVWGQGTLVTVSS VL: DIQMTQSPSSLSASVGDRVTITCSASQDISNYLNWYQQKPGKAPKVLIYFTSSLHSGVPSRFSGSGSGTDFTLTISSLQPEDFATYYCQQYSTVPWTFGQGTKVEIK yielded pKd of 9.76

The recorded pKd for entry S100a Q (anti-VEGF IgG) (antibody, V domains shown, copies: 2 + 2) VH: EVQLVESGGGLVQPGGSLRLSCAASGYTFTNYGMNWVRQAPGKGLEWVGWINTYTGEPTYAADFKRRFTFSLDTSKSTAYLQMNSLRAEDTAVYYCAKYPHYYGQSHWYFDVWGQGTLVTVSS VL: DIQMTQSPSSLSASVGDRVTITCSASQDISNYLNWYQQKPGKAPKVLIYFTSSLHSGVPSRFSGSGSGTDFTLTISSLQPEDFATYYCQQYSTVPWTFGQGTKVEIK equals 9.35

Then there is this binder:
Query S100a T (anti-VEGF IgG) (antibody, V domains shown, copies: 2 + 2) VH: EVQLVESGGGLVQPGGSLRLSCAASGYTFTNYGMNWVRQAPGKGLEWVGWINTYTGEPTYAADFKRRFTFSLDTSKSTAYLQMNSLRAEDTAVYYCAKYPHYYGTSHWYFDVWGQGTLVTVSS VL: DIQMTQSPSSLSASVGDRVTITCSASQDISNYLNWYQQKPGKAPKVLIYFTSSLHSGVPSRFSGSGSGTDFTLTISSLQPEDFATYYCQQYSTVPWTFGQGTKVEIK yields pKd of 9.71
